# measurement_target: Renin (Homo sapiens, UniProt P00797)
# Sequence (P00797 whole entry): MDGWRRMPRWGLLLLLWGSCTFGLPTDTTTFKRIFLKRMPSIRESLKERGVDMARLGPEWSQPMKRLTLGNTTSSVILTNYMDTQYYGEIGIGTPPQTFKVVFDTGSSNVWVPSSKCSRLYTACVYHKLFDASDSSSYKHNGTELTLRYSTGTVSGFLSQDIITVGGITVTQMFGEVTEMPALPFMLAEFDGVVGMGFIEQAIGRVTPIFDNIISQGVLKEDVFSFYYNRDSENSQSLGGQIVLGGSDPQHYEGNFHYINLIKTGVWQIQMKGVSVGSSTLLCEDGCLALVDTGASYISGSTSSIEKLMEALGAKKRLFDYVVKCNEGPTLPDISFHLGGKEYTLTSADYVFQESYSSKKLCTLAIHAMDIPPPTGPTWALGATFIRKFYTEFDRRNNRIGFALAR
# assay_explanation: In vitro potency against purified renin at a pH of 7.4
Measured pIC50, listed per entry.
Quick note: pIC50 means taking -log10 of the concentration in moles per liter.

{"input_smiles": "CCCC[C@H](N[C@@H](Cc1ccccc1)C(=O)N1CCC(OCOC)CC1)C(=O)N[C@@H](CC1CCCCC1)[C@@H](O)[C@@H](O)CC(C)C", "measurement_target": "Renin (Homo sapiens, UniProt P00797)", "reported_value": 8.55}
{"input_smiles": "CCCC[C@H](O[C@@H](Cc1ccccc1)C(=O)N1CCC(OCOC)CC1)C(=O)N[C@@H](CC1CCCCC1)[C@@H](O)[C@@H](O)CC(C)C", "measurement_target": "Renin (Homo sapiens, UniProt P00797)", "reported_value": 8.49}
{"input_smiles": "COCOC1CCN(C(=O)[C@H](Cc2ccccc2)O[C@@H](C)C(=O)N[C@@H](CC2CCCCC2)[C@@H](O)[C@@H](O)CC(C)C)CC1", "measurement_target": "Renin (Homo sapiens, UniProt P00797)", "reported_value": 8.15}
{"input_smiles": "CCC[C@H](O[C@@H](Cc1ccccc1)C(=O)N1CCC(OCOC)CC1)C(=O)N[C@@H](CC1CCCCC1)[C@@H](O)[C@@H](O)CC(C)C", "measurement_target": "Renin (Homo sapiens, UniProt P00797)", "reported_value": 8.26}

Task: Which pIC50 value belongs to CC[C@H](O[C@@H](Cc1ccccc1)C(=O)N1CCC(OCOC)CC1)C(=O)N[C@@H](CC1CCCCC1)[C@@H](O)[C@@H](O)CC(C)C ?
Result: 8.27
